test system: HCC-2998 colon; assay: NCI tumour cell line growth inhibition, 48 h
REPORTED METRIC: GI50

Completed entries (count: 3):
- ITEM SMILES: "COc1cc2c3c(n(CCCN(CCO)CCO)c(=O)c2cc1OC)-c1cc2c(cc1C3=O)OCO2"
  GI50: "< 0.01 µM"
- ITEM SMILES: "COc1cc(C(=O)O[C@H](C(N)=O)[C@]2(C)CO2)c2cccc(C)c2c1"
  GI50: "0.0257 µM"
- ITEM SMILES: "CC(=O)[CH-]C(=O)c1ccccc1.CC(=O)[CH-]C(=O)c1ccccc1.O=S(=O)([O-])c1cc([O-])c2c([O-])cc(S(=O)(=O)[O-])cc2c1.[Na+].[Ti+4]"
  GI50: "> 100 µM"

--- query ---
Record `COc1cc2c3c(n(CCCN(C)CCO)c(=O)c2cc1OC)-c1cc2c(cc1C3=O)OCO2` . Reported GI50: 7.05 µM
